- protocol.details: ATG_NRF2_ARE_CIS: Attagene CIS-FACTORIAL HepG2 Assay for human Nuclear Factor Erythroid 2 Related Factor 2 (NFR2) response to Antioxidant Response Elements (ARE) (AID 2282992)
- details: HepG2 Attagene ARE/NRF2 reporter, transcription factor activity; actives raise or lower the signal
Calls of active or inactive are those of the source. The calls were made as follows: active = hit-call score of the fitted dose curve at least 0.9, where 1 is the maximum; inactive = score below 0.9.
Your response should consist of one outcome taken from 1 (yes) for active, 0 (no) for inactive

The examples below pair each entry with its known result.
compound=CC(C)=CCCC(C)=CC#N category="0 (no)"
compound=C=CC(=O)OCCCCCCCCCC category="1 (yes)"
compound=Cc1ccc(C)c(OCCCC(C)(C)C(=O)O)c1 category="0 (no)"
compound=CCCCC(=O)O category="0 (no)"
compound=CCOC(=O)OC(=O)OCC category="0 (no)"
compound=O=C(Cl)c1c(Cl)c(Cl)c(C(=O)Cl)c(Cl)c1Cl category="0 (no)"

Q) Recorded test outcome, item COC(OC)(C(=O)c1ccccc1)c1ccccc1
A) 0 (no)

Q) Would you mind telling me which call this test gave Cc1c(Cl)cccc1Cl ?
A) 0 (no)

Q) State the result this test recorded for CC1(C)[C@@H]2CC[C@@]1(C)C(=O)C2 .
A) 0 (no)

Q) Per the records of this test, what outcome belongs to O=S(=O)(O)c1ccc(Nc2nc(Nc3ccc(C=Cc4ccc(Nc5nc(Nc6ccc(S(=O)(=O)O)cc6)nc(N(CCO)CCO)n5)cc4S(=O)(=O)O)c(S(=O)(=O)O)c3)nc(N(CCO)CCO)n2)cc1 ?
A) 0 (no)

---

- Read-out: Interleukin-1 alpha (IL1a), IL1A (gene 3552)
- protocol.details: BSK_KF3CT_IL1a: BioMAP Diversity Plus: KF3CT Assay for Interleukin-1 alpha (IL1a) Biomarker Activity (AID 2283070)
- details: primary human keratinocytes with fibroblasts; actives raise or lower the signal
Calls of active or inactive are those of the source. Rule for the calls: active = hit-call score of the fitted dose curve at least 0.9, where 1 is the maximum; inactive = score below 0.9.
API: response.call in TRUE for active, FALSE for inactive

Q) // return assay outcome for C1CNCCN1
A) FALSE

Q) Please state the recorded outcome for this compound: c1ccc2sc(SSN3CCOCC3)nc2c1
A) TRUE

Q) Entry C=CC(=O)OCCCCCCOC(=O)C=C : call = ?
A) TRUE

---

- target.desc: sheep Cyclooxygenase-1 (Cox1), PTGS1 (gene 443551)
- protocol.details: NVS_ENZ_oCOX1: NovaScreen (NVS) Enzymatic Assay for sheep Cyclooxygenase-1 (Cox1) (AID 2283239);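 also: actives reduce cyclooxygenase activity so potencies are for inhibitors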
Records with an inconclusive call do not appear. Calls of active or inactive are those of the source. Rule for the calls: active = hit-call score of the fitted dose curve at least 0.9, where 1 is the maximum; inconclusive = response in the unintended direction; inactive = score below 0.9.
Hello, when you answer, please use one of the following outcomes: TRUE = active, FALSE = inactive

Worked examples follow.
compound=Oc1ccc(/C=C/c2cc(O)cc(O)c2)cc1 target_desc="sheep Cyclooxygenase-1 (Cox1), PTGS1 (gene 443551)" category=TRUE
compound=Nc1cccc(N)n1 target_desc="sheep Cyclooxygenase-1 (Cox1), PTGS1 (gene 443551)" category=FALSE
compound=C=CCCCCCCCCC=O target_desc="sheep Cyclooxygenase-1 (Cox1), PTGS1 (gene 443551)" category=FALSE
compound="CC1=C(O)C(=O)C(C)O1 (stereo not drawn)" target_desc="sheep Cyclooxygenase-1 (Cox1), PTGS1 (gene 443551)" category=FALSE
compound=Oc1c(Cl)cc(Cl)c(Cl)c1Cl target_desc="sheep Cyclooxygenase-1 (Cox1), PTGS1 (gene 443551)" category=FALSE
compound=CCCCCCCCCCCC(C)=O target_desc="sheep Cyclooxygenase-1 (Cox1), PTGS1 (gene 443551)" category=TRUE
compound=Cc1c(O)cccc1O target_desc="sheep Cyclooxygenase-1 (Cox1), PTGS1 (gene 443551)" category=TRUE
compound=NNS(=O)(=O)c1ccc(Oc2ccc(S(=O)(=O)NN)cc2)cc1 target_desc="sheep Cyclooxygenase-1 (Cox1), PTGS1 (gene 443551)" category=FALSE
compound=CCCCCC1=CCCC1=O target_desc="sheep Cyclooxygenase-1 (Cox1), PTGS1 (gene 443551)" category=TRUE
compound="CC(=O)OC(C)c1ccccc1 (stereo not drawn)" target_desc="sheep Cyclooxygenase-1 (Cox1), PTGS1 (gene 443551)" category=FALSE

Q) In this assay, the call recorded for COc1ccc(C(=O)/C(Br)=C\C(=O)O)cc1 was what?
A) TRUE

Q) Lab log entry: COC(OC)(C(=O)c1ccccc1)c1ccccc1 — outcome as called in the assay?
A) FALSE

Q) // param item: CCc1occc(=O)c1O ; yields the recorded call
A) TRUE

Source: PubChem BioAssay (EPA / NIEHS)
